Each entry below carries its reported growth inhibition.
experiment: inhibition of 3D7 malaria parasite growth – strain 3D7 (AID 2306);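 also: 0% = DMSO wells and 100% = chloroquine plus artemisinin control wells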; details: P. falciparum 3D7 erythrocytic growth, LDH absorbance, 72 h; at 2 µM; active compounds read high
Calls of active or inactive are those of the source. No rule for the calls is given here.

compound: N#Cc1ccc2c(c1)CCN(CCC1CCC(NC(=O)c3cccc(-c4ccc(F)cc4)c3)CC1)CC2 (centres undefined)
growth inhibition: 92% (active)

compound: COc1ccc(C2CCN(CCN3CCC(NC(=O)c4cccc(-c5ccncc5)c4)CC3)CC2)c(OC)c1
growth inhibition: 94% (active)

compound: COc1ccc(NC(=O)C2c3ccccc3C(=O)N(C3CCCC3)C2c2cccs2)cc1 (centres undefined)
growth inhibition: 93% (active)

compound: O=C(NCCCN1CCOCC1)c1csc(Nc2ccc(Cl)c(Cl)c2)n1
growth inhibition: 92% (active)

compound: CCOc1cc(C)ccc1NC1CCN(CCCCNC(=O)c2ccc(NC(=O)c3ccc(Cl)cc3)cc2)CC1
growth inhibition: 101% (active)

compound: Cc1cc(N[C@@H](Cc2ccccc2)C(=O)NCc2cccs2)nc(NCCc2ccccc2)n1
growth inhibition: 92% (active)

compound: O=C(CC1NC(=O)c2ccccc21)Nc1ccc(-c2cccc(-c3nc4ccc(C(F)(F)F)cc4[nH]3)c2)cc1 (centres undefined)
growth inhibition: 95% (active)

compound: COc1cccc(CC(=O)N2CCC(n3c(C)nc4ccc(F)cc43)CC2)c1
growth inhibition: 100% (active)

compound: COc1ccc2nccc([C@@H](O)CN3CCC(NC(=O)[C@@H]4Cc5ccccc5CN4C(=O)OC(C)(C)C)CC3)c2c1
growth inhibition: 92% (active)

---

molecular target: Calcium-dependent protein kinase 4 (Plasmodium falciparum (isolate 3D7)); test: PfCDPK4 kinase inhibitors, biochemical, TCAMS library (AID 1159588); details: recombinant PfCDPK4, Kinase-Glo ATP depletion luminescence
Entries with a potency or affinity are not part of this list. Activity calls are given as the source filed them. The limit is not given here; nearly all actives have IC50 up to about 0.91 µM.

compound: CCc1ccccc1N=C1c2c(cccc2[N+](=O)[O-])C(=O)C1C(C)=O (centres undefined)
target_under_test: Calcium-dependent protein kinase 4 (Plasmodium falciparum (isolate 3D7))
outcome: inactive
--
compound: COc1cc(Nc2nccc(NCC(O)c3ccc(C(F)(F)F)cc3)n2)cc(OC)c1OC (centres undefined)
target_under_test: Calcium-dependent protein kinase 4 (Plasmodium falciparum (isolate 3D7))
outcome: inactive
--
compound: O=C(CN1CCN(C(=O)c2ccco2)CC1)Nc1ccc(Br)cc1Cl
target_under_test: Calcium-dependent protein kinase 4 (Plasmodium falciparum (isolate 3D7))
outcome: inactive
--
compound: CS(=O)(=O)c1cccc(-c2cnc(N)c3cc(-c4ccc(F)cc4)ccc23)c1
target_under_test: Calcium-dependent protein kinase 4 (Plasmodium falciparum (isolate 3D7))
outcome: inactive
--
compound: CCn1c(Cc2ccccc2)nnc1SCC(=O)N1c2ccccc2Sc2ccccc21
target_under_test: Calcium-dependent protein kinase 4 (Plasmodium falciparum (isolate 3D7))
outcome: inactive
--
compound: CCCCCCCN1CC[C@@H](CCCc2ccnc3ccc(OC)cc23)[C@@H](CCN)C1
target_under_test: Calcium-dependent protein kinase 4 (Plasmodium falciparum (isolate 3D7))
outcome: inactive
--
compound: CC(C)NCc1cccc(-c2ccc(-c3nc4ccc(C(F)(F)F)cc4[nH]3)cc2)c1
target_under_test: Calcium-dependent protein kinase 4 (Plasmodium falciparum (isolate 3D7))
outcome: inactive
--
compound: O=C(Nc1ccc(OC2CCN(Cc3ccc(F)cc3)C2)c(Cl)c1)c1ccsc1 (centres undefined)
target_under_test: Calcium-dependent protein kinase 4 (Plasmodium falciparum (isolate 3D7))
outcome: inactive
--
compound: CC(C)C[C@@H](C(=O)Nc1ccc(Cc2ccc(NC(=O)[C@H](CC(C)C)N(C)C(=O)OC(C)(C)C)cc2)cc1)N(C)C(=O)OC(C)(C)C
target_under_test: Calcium-dependent protein kinase 4 (Plasmodium falciparum (isolate 3D7))
outcome: inactive
--
compound: O=C(Cc1cn(-c2ccccc2)nc1-c1ccc(Cl)cc1)Nc1nccs1
target_under_test: Calcium-dependent protein kinase 4 (Plasmodium falciparum (isolate 3D7))
outcome: inactive
--
compound: CC(C)(C)c1ccccc1SC1=C(O)CC2(CCNCC2)OC1=O
target_under_test: Calcium-dependent protein kinase 4 (Plasmodium falciparum (isolate 3D7))
outcome: inactive
--
compound: COc1ccc(CCn2c(=N)c(C(=O)NCc3ccccc3)cc3c(=O)n4cccc(C)c4nc32)cc1
target_under_test: Calcium-dependent protein kinase 4 (Plasmodium falciparum (isolate 3D7))
outcome: inactive
--
compound: COc1cc2c(c(OC)c1[N+](=O)[O-])C=CC1(O2)N(C)c2ccc([N+](=O)[O-])cc2C1(C)C (centres undefined)
target_under_test: Calcium-dependent protein kinase 4 (Plasmodium falciparum (isolate 3D7))
outcome: inactive
--
compound: Clc1ccc(C=NNc2ccnc3ccccc23)cc1
target_under_test: Calcium-dependent protein kinase 4 (Plasmodium falciparum (isolate 3D7))
outcome: inactive
--
compound: Cc1cccc(-c2nn(-c3ccccc3)c3[nH]c(=O)c(CNC4CCCC4)cc23)c1
target_under_test: Calcium-dependent protein kinase 4 (Plasmodium falciparum (isolate 3D7))
outcome: inactive
--
compound: COc1cccc2c(NN=Cc3ccc([N+](=O)[O-])cc3)ccnc12
target_under_test: Calcium-dependent protein kinase 4 (Plasmodium falciparum (isolate 3D7))
outcome: inactive
--
compound: NC(N)=Nc1nc(-c2ccc(NC(=O)Nc3cccc(-c4csc(N=C(N)N)n4)c3)cc2)cs1
target_under_test: Calcium-dependent protein kinase 4 (Plasmodium falciparum (isolate 3D7))
outcome: inactive
--
compound: CCOc1ccc(NC(=O)c2ccc(NCCCN3CC(C)CC(C)C3)c([N+](=O)[O-])c2)cc1 (centres undefined)
target_under_test: Calcium-dependent protein kinase 4 (Plasmodium falciparum (isolate 3D7))
outcome: inactive
--
compound: Cc1ccc(N2CCN(C(=O)c3cccc(-c4cncc5nc(-c6ccco6)n(C)c45)c3)CC2)nc1
target_under_test: Calcium-dependent protein kinase 4 (Plasmodium falciparum (isolate 3D7))
outcome: inactive
--
compound: COCCn1c(SC(C)C(=O)Nc2cc(C(F)(F)F)ccc2Cl)nc2ccccc2c1=O (centres undefined)
target_under_test: Calcium-dependent protein kinase 4 (Plasmodium falciparum (isolate 3D7))
outcome: inactive
--
compound: COc1cc2nc(-c3ccccc3)nc(N3CCN(CC(=O)N4CCCC4)CC3)c2cc1OC
target_under_test: Calcium-dependent protein kinase 4 (Plasmodium falciparum (isolate 3D7))
outcome: inactive
--
compound: NCc1ccc(-c2cccc(CNC3CCN(Cc4ccccc4)CC3)c2)cc1
target_under_test: Calcium-dependent protein kinase 4 (Plasmodium falciparum (isolate 3D7))
outcome: inactive
--
compound: NC1=NC(c2ccccc2)(c2ccccc2)C(=O)N1CCCCc1ccccc1
target_under_test: Calcium-dependent protein kinase 4 (Plasmodium falciparum (isolate 3D7))
outcome: inactive
--
compound: CCNc1cc(C)nc(Nc2ccc(NC(=O)C3CCCC3)cc2)n1
target_under_test: Calcium-dependent protein kinase 4 (Plasmodium falciparum (isolate 3D7))
outcome: inactive
--
compound: O=C(Cc1cccs1)NC(CCCN1CCC(Oc2cccc(Cl)c2)CC1)c1ccc(Cl)c(Cl)c1 (centres undefined)
target_under_test: Calcium-dependent protein kinase 4 (Plasmodium falciparum (isolate 3D7))
outcome: inactive
--
compound: CCOc1cc(CC)ccc1C1CCN(CCN2CCC(CNC(=O)c3ccc(-c4ccc(C#N)cc4)cc3)CC2)CC1
target_under_test: Calcium-dependent protein kinase 4 (Plasmodium falciparum (isolate 3D7))
outcome: inactive
--
compound: CC(C)COc1ccc(Cl)cc1Cc1ccc(-c2nc3cc(F)c(F)cc3[nH]2)o1
target_under_test: Calcium-dependent protein kinase 4 (Plasmodium falciparum (isolate 3D7))
outcome: inactive
--
compound: O=C(Nc1cccc(C(F)(F)F)c1)Nc1cc(F)c(F)cc1Cl
target_under_test: Calcium-dependent protein kinase 4 (Plasmodium falciparum (isolate 3D7))
outcome: inactive
--
compound: C[C@@H](COc1ccccc1)NCC(O)c1ccc([N+](=O)[O-])c(OCc2ccccc2)c1 (some centres undefined)
target_under_test: Calcium-dependent protein kinase 4 (Plasmodium falciparum (isolate 3D7))
outcome: inactive
--
compound: CC(C#N)Cc1ccc(-c2cnc(N)c3cc(-c4ccnc(N)n4)ccc23)cc1 (centres undefined)
target_under_test: Calcium-dependent protein kinase 4 (Plasmodium falciparum (isolate 3D7))
outcome: inactive
--
compound: CNC(=O)c1cnc(Nc2ccc(N3CCOCC3)cc2)nc1Nc1cccc(O)c1
target_under_test: Calcium-dependent protein kinase 4 (Plasmodium falciparum (isolate 3D7))
outcome: inactive
--
compound: Fc1ccc2nc(-c3ccc(-c4ccc(CNCC5CCCO5)cc4)cc3)[nH]c2c1 (centres undefined)
target_under_test: Calcium-dependent protein kinase 4 (Plasmodium falciparum (isolate 3D7))
outcome: inactive
--
compound: CCc1c[nH]c2c(N(c3ccccc3)S(C)(=O)=O)cc(C(=O)N[C@@H](Cc3ccccc3)[C@H](O)CNCc3cccc(C(F)(F)F)c3)cc12
target_under_test: Calcium-dependent protein kinase 4 (Plasmodium falciparum (isolate 3D7))
outcome: inactive
--
compound: COc1ccc(-c2nc3nc4ccccc4cc3[nH]2)c(OCC(O)CNC(C)C)c1 (centres undefined)
target_under_test: Calcium-dependent protein kinase 4 (Plasmodium falciparum (isolate 3D7))
outcome: inactive
--
compound: CC(C)(C)c1ccc(OCCCON2C(N)=NC(N)=NC2(C)C)c(C(C)(C)C)c1
target_under_test: Calcium-dependent protein kinase 4 (Plasmodium falciparum (isolate 3D7))
outcome: inactive
--
compound: CN1CC[C@@H](Oc2cc(C(=O)NCc3ccc(Cl)c(Cl)c3)ccc2C(F)(F)F)C1
target_under_test: Calcium-dependent protein kinase 4 (Plasmodium falciparum (isolate 3D7))
outcome: inactive
--
compound: COc1ccc2nccc([C@@H](O)CN3CCC(NC(=O)C(c4ccsc4)N4CCN(c5ccccc5OC)CC4)CC3)c2c1 (some centres undefined)
target_under_test: Calcium-dependent protein kinase 4 (Plasmodium falciparum (isolate 3D7))
outcome: inactive
--
compound: Nc1nc(N)c2c(ccc3nccc32)[nH]1
target_under_test: Calcium-dependent protein kinase 4 (Plasmodium falciparum (isolate 3D7))
outcome: inactive
--
compound: Cc1ccccc1OCCCN1CCN(CC(c2ccc(F)cc2)N2CCN(C(C)C)CC2)CC1 (centres undefined)
target_under_test: Calcium-dependent protein kinase 4 (Plasmodium falciparum (isolate 3D7))
outcome: inactive
